# melting point listing for each entry below

{"compound": "CCc1ccc2c(c1)OC1(O)c3cccc(N)c3C(=O)C21O (stereo not drawn)", "melting point": "200 to 203 °C"}
{"compound": "CCN(CC)C(=O)OC12Oc3cc(C(C)C)ccc3C1(O)C(=O)c1ccccc12 (stereo not drawn)", "melting point": "127 to 130 °C"}
{"compound": "COc1ccc2c(c1)C(=O)C1(O)c3ccc(C(C)C)cc3OC21O (stereo not drawn)", "melting point": "98 to 102 °C"}
{"compound": "CCC(C)(C)c1ccc2c(c1)C1(O)C(=O)c3ccccc3C1(O)O2 (stereo not drawn)", "melting point": "175 to 176 °C"}
{"compound": "Cc1cc2c(c(C)c1C)C1(O)C(=O)c3ccccc3C1(O)O2 (stereo not drawn)", "melting point": "212 to 214 °C"}
{"compound": "O=C1c2ccccc2C2(O)Oc3c(ccc4ccccc34)C12O (stereo not drawn)", "melting point": "216 to 218 °C"}
{"compound": "CCC(C)(C)c1cc(C(C)(C)CC)c2c(c1)C1(O)C(=O)c3ccccc3C1(O)O2 (stereo not drawn)", "melting point": "195 to 222 °C"}
{"compound": "CC(C)(C)c1ccc2c(c1)C1(O)C(=O)c3ccccc3C1(O)O2 (stereo not drawn)", "melting point": "187 to 188 °C"}
{"compound": "CC(C)c1ccc2c(c1)OC1(OC(=O)/C=C/c3ccccc3)c3ccccc3C(=O)C21OC(=O)/C=C/c1ccccc1 (stereo not drawn)", "melting point": "111 to 113 °C"}
